measurement target: recombinant human MAO-B (Homo sapiens)
Construct: purchased Sigma-Aldrich; host or cells: insect cells (microsomes)
Sequence (P27338 whole entry): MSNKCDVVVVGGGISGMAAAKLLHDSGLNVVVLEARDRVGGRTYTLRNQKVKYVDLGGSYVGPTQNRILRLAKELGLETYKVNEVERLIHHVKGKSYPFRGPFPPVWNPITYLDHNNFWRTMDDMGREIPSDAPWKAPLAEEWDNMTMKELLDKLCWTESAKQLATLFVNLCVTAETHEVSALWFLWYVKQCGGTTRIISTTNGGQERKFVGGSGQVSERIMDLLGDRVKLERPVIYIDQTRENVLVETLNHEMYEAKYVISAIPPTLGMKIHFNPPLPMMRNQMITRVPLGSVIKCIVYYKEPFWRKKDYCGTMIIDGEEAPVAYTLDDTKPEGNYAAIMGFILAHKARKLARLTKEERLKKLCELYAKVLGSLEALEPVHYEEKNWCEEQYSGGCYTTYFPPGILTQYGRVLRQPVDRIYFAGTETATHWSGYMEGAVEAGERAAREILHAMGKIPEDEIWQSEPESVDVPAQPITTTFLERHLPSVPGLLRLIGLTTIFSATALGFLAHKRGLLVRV
procedure text: MAO-B inhibition, IC50 determination with kynuramine as substrate (fluorescence of 4-hydroxyquinoline)
Format: biochemical
test conditions: SI = IC50(MAO-A)/IC50(MAO-B)
Assign yes whenever SI (selectivity index) does not fall below 4; assign no whenever it does.

Known results for compounds:
compound: Brc1ccc2noc(-c3ccccc3)c2c1 [Compound 3g, 5-Bromo-3-phenylbenzo[c]isoxazole]
measurement target: recombinant human MAO-B (Homo sapiens)
answer label: no

compound: N#Cc1ccc(-c2onc3c(Cl)cc(Cl)cc23)cc1 [Compound 7a]
measurement target: recombinant human MAO-B (Homo sapiens)
answer label: yes

compound: Cc1ccc(-c2onc3ccc(Cl)cc23)cc1 [Compound 3c, 5-Chloro-3-(p-tolyl)benzo[c]isoxazole]
measurement target: recombinant human MAO-B (Homo sapiens)
answer label: no

compound: Clc1ccc2noc(-c3ccc(Br)cc3)c2c1 [Compound 3m]
measurement target: recombinant human MAO-B (Homo sapiens)
answer label: yes

compound: c1ccc(-c2onc3ccc(C4OCCO4)cc23)cc1 [Compound 3l]
measurement target: recombinant human MAO-B (Homo sapiens)
answer label: no

Reported SI (selectivity index) at or above 4? Clc1ccc(-c2onc3ccc(I)cc23)cc1 [Compound 3b]
yes

Reported SI (selectivity index) at or above 4? COc1ccc(-c2onc3ccc(Cl)cc23)cc1 [Compound 3o]
no
